settings: in water, 328.15 K
Can you tell me solubility (mole fraction) for the items I'm about to list?

structure string: COc1cc(NS(=O)(=O)c2ccc(N)cc2)nc(OC)n1
solubility (mole fraction): 1.05e-05

Consider the following items and state reported solubility (mole fraction) for each.
1. Nc1ccc(S(=O)(=O)[N-]c2cncc(Cl)n2)cc1.[Na+]
2. COc1cnc(NS(=O)(=O)c2ccc(N)cc2)nc1
3. COc1cc(NS(=O)(=O)c2ccc(N)cc2)ncn1
4. Nc1ccc(S(=O)(=O)Nc2ncccn2)cc1

Given back:
1: 3.28e-05; 2: 2.34e-05; 3: 1.45e-05; 4: 2.1e-05
